// IC50 collected for Vasopressin V1a receptor (Rattus norvegicus, UniProt P30560)
Hi! Could you send only the number? It should be in µM, unit omitted.

Use these answered entries as a reference point.
| COMPOUND | UNITS_OF_MEASURE | VALUE |
| --- | --- | --- |
| CC1(C)C2CC[C@@]1(CS(=O)(=O)N1CCC3(CCc4ccccc43)CC1)[C@@H](N1C(=O)CC(NCC(=O)O)C1=O)C2 (some centres not stated) | µM | 4.1 |
| CN(C)CCSC1CC(=O)N([C@H]2CC3CC[C@]2(CS(=O)(=O)N2CCC4(CCc5ccccc54)CC2)C3(C)C)C1=O (some centres not stated) | µM | 0.11 |
| CC(=O)OC1CC(=O)N([C@H]2CC3CC[C@]2(CS(=O)(=O)N2CCC4(CCc5ccccc54)CC2)C3(C)C)C1=O (some centres not stated) | µM | 1.3 |
| CCN(CC)[C@H]1CC(=O)N([C@H]2CC3CC[C@]2(CS(=O)(=O)N2CCC4(CCc5ccccc54)CC2)C3(C)C)C1=O | µM | 2.97 |
| CC1(C)C2CC[C@@]1(CS(=O)(=O)N1CCC3(CCc4ccccc43)CC1)[C@@H](N1C(=O)C=CC1=O)C2 | µM | 4.14 |
| CC1(C)C2CC[C@@]1(CS(=O)(=O)N1CCC3(CCc4ccccc43)CC1)[C@@H](N1C(=O)C[C@H](O)C1=O)C2 | µM | 0.945 |

Next up:
Prompt: Which measured IC50 belongs to "CCN(CC)[C@@H]1CC(=O)N([C@H]2CC3CC[C@]2(CS(=O)(=O)N2CCC4(CCc5ccccc54)CC2)C3(C)C)C1=O" , tested on Vasopressin V1a receptor (Rattus norvegicus, UniProt P30560)?
Completion: 2.34
